test system: CAKI-1; experiment: NCI tumour cell line growth inhibition, 48 h
Active and inactive are the calls of the source. Cut-off read from the data, not from the text of the source: active = GI50 up to about 1.1 µM and inactive = higher.
Possible outcomes: active, inactive

compound	class_assignment
Cc1ccc(C2(c3ccc(F)cc3)OC(=O)c3ccccc32)c(O)c1 (stereo unspecified)	inactive
CC(=O)Oc1c(Br)ccc2cc(C(Br)Br)c(C(=O)c3ccccc3)nc12	inactive
O=C(C#Cc1cn(C2CC(O)C(CO)O2)c(=O)[nH]c1=O)c1ccccc1 (stereo unspecified)	inactive
Cc1ccc(NCC2CC/C(=C\c3ccc(Cl)cc3)C2=O)cc1 (stereo unspecified)	inactive
CCOC(=O)CC1=N/C(=N/c2cc(Cl)ccc2Cl)SC1	inactive
CN(C(=O)C1CC1)C1C2CN3CCC(O2)C13 (stereo unspecified)	inactive
O=C(c1ccccc1)c1ccc2[nH]c(-c3c(Cl)c(Cl)c(Cl)c(Cl)c3-c3nnc(-c4ccccc4)o3)nc2c1	inactive
CC1=C(C(=O)Nc2ccccc2)C(c2ccc3c(c2)OCO3)C(C(=O)Nc2ccccc2)=C(C)N1	inactive
COc1ccc(C(=O)N2c3ccccc3N(C)n3cccc3C2CC(=O)O)cc1 (stereo unspecified)	inactive
BrCC[N+]12CCCN1CCC2	active
COc1cc(C2c3cc(OC)c(OC)c(O)c3C(=O)C3CCC(=O)N32)cc(OC)c1OC (stereo unspecified)	inactive
COc1cccc(C2SCC(=O)N2c2ccc(-n3c(-c4ccccc4)nc4ccccc4c3=O)cc2)c1OC (stereo unspecified)	inactive
NC(=O)C1N=NSC1NC(=O)c1ccc([N+](=O)[O-])cc1 (stereo unspecified)	inactive
CCOC(=O)c1ccc(-c2cccs2)[nH]1	inactive
C/C=C/C=N/N(c1nnc(-c2ccccc2)c(-c2ccccc2)n1)S(=O)(=O)c1ccc(C)cc1	inactive
CCCC1=NC(C(F)(F)F)(C(F)(F)F)N=C(N2CCOCC2)O1	inactive
O=C(CCl)N1CCN(c2ccccc2)CC1	inactive
Nc1ccc(C(=O)NN2C(=O)C(Cl)C2c2ccccc2O)cc1 (stereo unspecified)	inactive
CC(C)(C)OC(=O)Cc1ccc2c(ccn2Cc2ccccc2)c1	inactive
COc1cc(OC)c2c(c1)OC(c1ccccc1)CC2=O (stereo unspecified) [DIMETHYLPINOCEMBRIN]	inactive
COc1ccc(CNc2nc3ccccc3nc2-c2cccs2)cc1	inactive

From: ChEMBL document CHEMBL1201862
